# System: Drosophila melanogaster
# experimental.protocol: olfactory response index (dipstick assay) (fraction of flies (RI; 1 aversion, 0.5 indifferent, 0 attraction)); higher = stronger aversion to the odorant
# experimental.setup: genotype (tubulin-GAL4 x UAS-RNAi line; control = progenitor): obp 59a; odorant concentration: 1% v/v; female
measured.parameter: olfactory response index
Numbers only.

# annotated cases, reported olfactory response index shown
CC(=O)c1ccccc1    0.717
CC(C)=CCCC(C)=CC=O (mixture of isomers)    0.68
CC(=O)OCCC(C)C [isoamyl acetate]    0.733
CCCCCC(C)=O    0.598
CC(C)=CCC/C(C)=C/CO    0.565

Hi team, please reply with olfactory response index for each item in this list.
1. CCc1cnccn1
2. COC(=O)c1ccccc1O [methyl salicylate]
3. CCC=O
4. C=C(C)[C@H]1CC=C(C)C(=O)C1 [(S)-carvone]

# output
0.638
0.616
0.611
0.739

---

# System: Drosophila melanogaster
# experimental.protocol: olfactory response index (dipstick assay) (fraction of flies (RI; 1 aversion, 0.5 indifferent, 0 attraction)); higher = stronger aversion to the odorant
# experimental.setup: genotype (tubulin-GAL4 x UAS-RNAi line; control = progenitor): obp 93a; odorant concentration: 1% v/v; male
measured.parameter: olfactory response index

CCC/C=C/C=O [(E)-2-hexenal]    0.782

Hi team, please reply with olfactory response index for each item in this list.
1. Cc1cnccn1
2. CC(C)=CCC/C(C)=C/CO
3. CCCCCC(C)=O

# output
0.111
0.412
0.345

---

# Tested on: Drosophila melanogaster
# experimental.protocol: olfactory response index (dipstick assay) (fraction of flies (RI; 1 aversion, 0.5 indifferent, 0 attraction)); higher = stronger aversion to the odorant
# experimental.setup: genotype (tubulin-GAL4 x UAS-RNAi line; control = progenitor): obp 18a; odorant concentration: 1% v/v; female
For each of the molecules below, state its olfactory response index.
One number for each entry.

CC(=O)OCCC(C)C [isoamyl acetate]    0.34
CCC/C=C/C=O [(E)-2-hexenal]    0.724
C=C(C)[C@H]1CC=C(C)C(=O)C1 [(S)-carvone]    0.558

# input Supply reported olfactory response index belonging to this molecule: CCC=O
# output 0.4

---

For each of the compounds below, state its olfactory response index.
# Tested on: Drosophila melanogaster
# experimental.protocol: olfactory response index (dipstick assay) (fraction of flies (RI; 1 aversion, 0.5 indifferent, 0 attraction)); higher = stronger aversion to the odorant
# experimental.setup: genotype (tubulin-GAL4 x UAS-RNAi line; control = progenitor): obp 93a; odorant concentration: 1% v/v; female
Give bare numbers.

# annotated cases, reported olfactory response index shown
CCC/C=C/C=O [(E)-2-hexenal]    0.848
CCCCCC(C)=O    0.443

Hi team, please reply with olfactory response index for each item in this list.
1. C=C(C)[C@H]1CC=C(C)C(=O)C1 [(S)-carvone]
2. CC(=O)OCCC(C)C [isoamyl acetate]
3. CCc1cnccn1
4. CC(C)=CCCC(C)=CC=O (mixture of isomers)
5. CCC=O

# output
1: 0.715; 2: 0.702; 3: 0.552; 4: 0.536; 5: 0.688

---

# Test system: Drosophila melanogaster
# experimental.protocol: olfactory response index (dipstick assay) (fraction of flies (RI; 1 aversion, 0.5 indifferent, 0 attraction)); higher = stronger aversion to the odorant
# experimental.setup: genotype (tubulin-GAL4 x UAS-RNAi line; control = progenitor): obp 28a; odorant concentration: 1% v/v; female
For each of the compounds below, state its olfactory response index.
Give bare numbers.

# annotated cases, reported olfactory response index shown
OCCc1ccccc1    0.526
C=C(C)[C@H]1CC=C(C)C(=O)C1 [(S)-carvone]    0.651
CC(C)=CCC/C(C)=C/CO    0.605
CCC/C=C/C=O [(E)-2-hexenal]    0.753
CC(=O)c1ccccc1    0.656

Hi team, please reply with olfactory response index for each item in this list.
1. CCOC(C)=O [ethyl acetate]
2. CC(=O)OCCC(C)C [isoamyl acetate]
3. CCCCCC(C)=O
4. C=C(C)[C@@H]1CC=C(C)C(=O)C1 [(R)-carvone]

# output
1. 0.709
2. 0.488
3. 0.526
4. 0.662

---

# System: Drosophila melanogaster
# experimental.protocol: olfactory response index (dipstick assay) (fraction of flies (RI; 1 aversion, 0.5 indifferent, 0 attraction)); higher = stronger aversion to the odorant
# experimental.setup: genotype (tubulin-GAL4 x UAS-RNAi line; control = progenitor): obp 56f; odorant concentration: 1% v/v; male
measured.parameter: olfactory response index
Give bare numbers.

# annotated cases, reported olfactory response index shown
CCOC(C)=O [ethyl acetate]    0.364
CCC/C=C/C=O [(E)-2-hexenal]    0.657
C=C(C)[C@@H]1CC=C(C)C(=O)C1 [(R)-carvone]    0.201

Hi team, please reply with olfactory response index for each item in this list.
1. CCc1cnccn1
2. OCCc1ccccc1
3. CC(C)=CCC/C(C)=C/CO
4. CC(=O)OCCC(C)C [isoamyl acetate]

# output
1: 0.247; 2: 0.0672; 3: 0.175; 4: 0.58

---

# Tested on: Drosophila melanogaster
# experimental.protocol: olfactory response index (dipstick assay) (fraction of flies (RI; 1 aversion, 0.5 indifferent, 0 attraction)); higher = stronger aversion to the odorant
# experimental.setup: genotype (tubulin-GAL4 x UAS-RNAi line; control = progenitor): obp 56h; odorant concentration: 1% v/v; female
For each of the molecules below, state its olfactory response index.
One number for each entry.

CCC=O [propanal]    0.356
CC(C)=CCC/C(C)=C/CO [geraniol]    0.406
OCCc1ccccc1 [2-phenylethanol]    0.258
CCCCCC(C)=O [2-heptanone]    0.513
CC(=O)c1ccccc1 [acetophenone]    0.489

Hi team, please reply with olfactory response index for each item in this list.
1. C=C(C)[C@H]1CC=C(C)C(=O)C1 [(S)-carvone]
2. CC(C)=CCCC(C)=CC=O (mixture of isomers) [citral]
3. COC(=O)c1ccccc1O [methyl salicylate]
4. CCc1cnccn1 [2-ethylpyrazine]
5. CCC/C=C/C=O [(E)-2-hexenal]

# output
0.683
0.66
0.63
0.492
0.665

---

# Tested on: Drosophila melanogaster
# experimental.protocol: olfactory response index (dipstick assay) (fraction of flies (RI; 1 aversion, 0.5 indifferent, 0 attraction)); higher = stronger aversion to the odorant
# experimental.setup: genotype (tubulin-GAL4 x UAS-RNAi line; control = progenitor): obp 58c; odorant concentration: 1% v/v; female
measured.parameter: olfactory response index
Answers are plain numbers.

# annotated cases, reported olfactory response index shown
CCCCCC(C)=O    0.272
C=C(C)[C@@H]1CC=C(C)C(=O)C1 [(R)-carvone]    0.684
CC(=O)OCCC(C)C [isoamyl acetate]    0.471
CCc1cnccn1    0.419
COC(=O)c1ccccc1O [methyl salicylate]    0.381

# input Supply reported olfactory response index belonging to this compound: CC(C)=CCC/C(C)=C/CO
# output 0.19

---

# System: Drosophila melanogaster
# experimental.protocol: olfactory response index (dipstick assay) (fraction of flies (RI; 1 aversion, 0.5 indifferent, 0 attraction)); higher = stronger aversion to the odorant
# experimental.setup: genotype (tubulin-GAL4 x UAS-RNAi line; control = progenitor): obp 57b; odorant concentration: 1% v/v; female
Classes are defined on olfactory response index with ranges interval 1: < 0.6; interval 2: ≥ 0.6 and < 0.7; interval 3: ≥ 0.7

A selection of reference data follows.
CCc1cnccn1 [2-ethylpyrazine]    interval 1
Cc1cnccn1 [2-methylpyrazine]    interval 1

# input Hey, which category is C=C(C)[C@H]1CC=C(C)C(=O)C1 [(S)-carvone] in, do you know?
# output interval 3

# input Hey, which category is CCC=O [propanal] in, do you know?
# output interval 2

# input Hey, which category is CC(C)=CCCC(C)=CC=O (mixture of isomers) [citral] in, do you know?
# output interval 2

# input Hey, which category is CCC/C=C/C=O [(E)-2-hexenal] in, do you know?
# output interval 3

# input Hey, which category is CCCCCC(C)=O [2-heptanone] in, do you know?
# output interval 1

# input Hey, which category is COC(=O)c1ccccc1O [methyl salicylate] in, do you know?
# output interval 1

---

# System: Drosophila melanogaster
# experimental.protocol: olfactory response index (dipstick assay) (fraction of flies (RI; 1 aversion, 0.5 indifferent, 0 attraction)); higher = stronger aversion to the odorant
# experimental.setup: genotype (tubulin-GAL4 x UAS-RNAi line; control = progenitor): obp 57a; odorant concentration: 1% v/v; female
For each of the compounds below, state its olfactory response index.
Give bare numbers.

CCOC(C)=O [ethyl acetate]    0.629

Hi team, please reply with olfactory response index for each item in this list.
1. Cc1cnccn1
2. CCc1cnccn1
3. CCC=O
4. CCCCCC(C)=O
5. CCC/C=C/C=O [(E)-2-hexenal]
6. CC(C)=CCC/C(C)=C/CO
7. C=C(C)[C@H]1CC=C(C)C(=O)C1 [(S)-carvone]

# output
1: 0.532; 2: 0.304; 3: 0.572; 4: 0.718; 5: 0.843; 6: 0.406; 7: 0.613
